Reported MIC values for the following compounds.
# Tested on: Candida albicans
# test_method_notes: In vitro antifungal activity against Candida albicans
# Format: functional
# measurement_parameters: Candida albicans; read-out: MIC

compound: O=C(c1ccccc1)C(O)(Cn1cnnc1)c1ccccc1 (stereo not given)
MIC: > 100 µg/mL

compound: O=C1O[C@H](c2ccc(F)cc2)[C@@](Cn2cncn2)(c2ccc(F)cc2)O1
MIC: > 100 µg/mL

compound: CC(C)[C@H]1OS(=O)O[C@]1(Cn1cncn1)c1ccc(Cl)cc1 (stereo not given in full)
MIC: > 100 µg/mL

compound: O=C1O[C@H](c2ccc(Cl)cc2)[C@@](Cn2cncn2)(c2ccc(Cl)cc2Cl)O1 (stereo in doubt; 115)
MIC: > 100 µg/mL

compound: CC(C)C(O)(Cn1cncn1)C(O)(c1ccc(Cl)cc1)c1ccc(Cl)cc1 (stereo not given)
MIC: > 100 µg/mL

compound: O=S1O[C@H](c2ccc(F)cc2)[C@@](Cn2cncn2)(c2ccc(Cl)cc2Cl)O1 (stereo not given in full)
MIC: > 100 µg/mL

compound: Cc1ccc(C(=O)C(O)(Cn2cncn2)c2ccc(C)cc2)cc1 (stereo not given)
MIC: > 100 µg/mL

compound: O=C(c1ccc(F)cc1)C(O)(Cn1cncn1)c1ccc(Cl)cc1Cl (stereo not given)
MIC: > 100 µg/mL

compound: O=C(c1ccc(Cl)cc1)C(O)(Cn1cncn1)c1ccc(Cl)cc1 (stereo not given)
MIC: 50 µg/mL

compound: O=S1O[C@H](c2ccc(Cl)cc2Cl)[C@@](Cn2cncn2)(c2ccc(Cl)cc2)O1 (stereo not given in full)
MIC: 100 µg/mL

====

# Tested on: Aspergillus fumigatus
# test_method_notes: In vitro antifungal activity against Aspergillus fumigatus
# Type: functional
# measurement_parameters: Aspergillus fumigatus; read-out: MIC

compound: OC(c1ccc(Cl)cc1Cl)C(O)(Cn1cncn1)c1ccc(F)cc1 (stereo not given)
MIC: > 100 µg/mL

compound: CC(C)[C@H]1OC(=O)O[C@]1(Cn1cncn1)c1ccc(Cl)cc1Cl
MIC: > 100 µg/mL

compound: O=C(c1ccc(Cl)cc1Cl)C(O)(Cn1ccnc1)c1ccc(Cl)cc1Cl (stereo not given)
MIC: 25 µg/mL

compound: Cc1ccc([C@H]2OC(=O)O[C@]2(Cn2cncn2)c2ccc(C)cc2)cc1
MIC: > 100 µg/mL

compound: CC(C)[C@H]1OS(=O)O[C@]1(Cn1cncn1)c1ccc(Cl)cc1 (stereo not given in full)
MIC: > 100 µg/mL

compound: CC(O)(c1ccc(Cl)cc1Cl)C(O)(Cn1cncn1)c1ccc(Cl)cc1 (stereo not given)
MIC: 50 µg/mL

compound: CCCC(=O)C(O)(Cn1cncn1)c1ccccc1Cl (stereo not given)
MIC: 100 µg/mL

compound: O=C(c1ccc(F)cc1)C(O)(Cn1cncn1)c1ccc(Cl)cc1 (stereo not given)
MIC: > 100 µg/mL

compound: CC(C)C(O)(Cn1cncn1)C(O)(c1ccc(Cl)cc1)c1ccc(Cl)cc1 (stereo not given)
MIC: > 100 µg/mL

compound: OC(c1ccccc1Cl)C(O)(Cn1cncn1)c1ccc(F)cc1 (stereo not given)
MIC: > 100 µg/mL

====

# System: Candida albicans
# test_method_notes: In vitro antifungal activity against Candida albicans
# Format: functional
# measurement_parameters: Candida albicans; read-out: MIC
Catalogue of MIC values

compound: O=C(c1ccc(Cl)cc1)C(O)(Cn1ccnc1)c1ccc(Cl)cc1 (stereo unspecified)
sign_qualifier: >
MIC, µg/mL: 100
//
compound: O=C(c1ccc(Cl)cc1Cl)C(O)(Cn1cncn1)c1ccccc1Cl (stereo unspecified)
sign_qualifier: =
MIC, µg/mL: 100
//
compound: CCC(=O)C(O)(Cn1cncn1)c1ccc(Cl)cc1Cl (stereo unspecified)
sign_qualifier: =
MIC, µg/mL: 100
//
compound: O=C(c1ccccn1)C(O)(Cn1cncn1)c1ccccn1 (stereo unspecified)
sign_qualifier: >
MIC, µg/mL: 100
//
compound: CCCCC(=O)C(O)(Cn1ccnc1)c1ccc(Cl)cc1Cl (stereo unspecified)
sign_qualifier: >
MIC, µg/mL: 100
//
compound: O=C1O[C@H](c2ccc(Cl)cc2)[C@@](Cn2cncn2)(c2ccc(Cl)cc2)O1
sign_qualifier: =
MIC, µg/mL: 50
//
compound: O=C(C1CCCC1)C(O)(Cn1cncn1)c1ccc(Cl)cc1Cl (stereo unspecified)
sign_qualifier: =
MIC, µg/mL: 50
//
compound: Clc1ccc([C@H]2OCO[C@]2(Cn2cncn2)c2ccc(Cl)cc2Cl)cc1
sign_qualifier: =
MIC, µg/mL: 50
//
compound: CCCCC(O)(Cn1cncn1)C(C)(O)c1ccc(Cl)cc1 (stereo in doubt; 191)
sign_qualifier: >
MIC, µg/mL: 100
//
compound: Cc1ccc(C(=O)C(O)(Cn2cncn2)c2ccccc2Cl)cc1 (stereo unspecified)
sign_qualifier: >
MIC, µg/mL: 100
//
compound: CCCC(=O)C(O)(Cn1cncn1)c1ccc(Cl)cc1 (stereo unspecified)
sign_qualifier: =
MIC, µg/mL: 100

====

# Test system: Aspergillus fumigatus
# test_method_notes: In vitro antifungal activity against Aspergillus fumigatus
# Format: functional
# measurement_parameters: Aspergillus fumigatus; read-out: MIC
readout: MIC

molecule: O=C1O[C@H](c2ccccc2)[C@@](Cn2ccnc2)(c2ccc(Cl)cc2Cl)O1
readout: MIC
test_result: 20 µg/mL
//
molecule: O=C(c1ccc(Cl)cc1Cl)C(O)(Cn1ccnc1)c1ccc(Cl)cc1 (centres undefined)
readout: MIC
test_result: 25 µg/mL
//
molecule: CCC(O)(Cn1cncn1)C(=O)c1ccc(Cl)cc1Cl (centres undefined)
readout: MIC
test_result: > 100 µg/mL
//
molecule: Fc1ccc([C@H]2OC(=S)O[C@]2(Cn2cncn2)c2ccc(Cl)cc2Cl)cc1
readout: MIC
test_result: > 100 µg/mL
//
molecule: O=C1O[C@H](c2ccc(F)cc2)[C@@](Cn2cncn2)(c2ccc(F)cc2)O1
readout: MIC
test_result: > 100 µg/mL
//
molecule: OC(c1cccc(Cl)c1)C(O)(Cn1cncn1)c1cccc(Cl)c1 (centres undefined)
readout: MIC
test_result: > 100 µg/mL
//
molecule: O=S1O[C@H](c2ccc(Cl)cc2)[C@](Cn2cncn2)(c2ccc(Cl)cc2Cl)O1 (some centres undefined)
readout: MIC
test_result: > 100 µg/mL
//
molecule: CCCCC(O)(Cn1cncn1)C(=O)c1ccc(Cl)cc1 (centres undefined)
readout: MIC
test_result: 100 µg/mL
//
molecule: CC(C)C(C)(O)C(O)(Cn1cncn1)c1ccccc1 (centres undefined)
readout: MIC
test_result: > 100 µg/mL

====

# Tested on: Aspergillus fumigatus
# test_method_notes: In vitro antifungal activity against Aspergillus fumigatus
# Assay type: functional
# measurement_parameters: Aspergillus fumigatus; read-out: MIC
Measured MIC, listed per entry.

compound: Fc1ccc([C@H]2OCO[C@]2(Cn2cncn2)c2ccc(Cl)cc2)cc1
MIC: > 100 µg/mL
//
compound: CCC[C@H]1OC(=O)O[C@]1(Cn1cncn1)c1ccc(Cl)cc1Cl
MIC: > 100 µg/mL
//
compound: Cc1ccc([C@H]2OC(=O)O[C@]2(Cn2cncn2)c2ccccc2Cl)cc1
MIC: > 100 µg/mL
//
compound: OC(c1ccc(Cl)cc1Cl)C(O)(Cn1cncn1)c1ccc(Cl)cc1 (configuration not stated)
MIC: > 100 µg/mL
//
compound: O=C(c1ccc(F)cc1)C(O)(Cn1cncn1)c1ccc(F)cc1 (configuration not stated)
MIC: > 100 µg/mL
//
compound: COc1ccc(C(O)C(O)(Cn2cncn2)c2ccc(OC)cc2)cc1 (configuration not stated)
MIC: > 100 µg/mL
//
compound: O=S1O[C@H](c2ccc(F)cc2)[C@@](Cn2cncn2)(c2ccc(Cl)cc2Cl)O1 (some centres not stated)
MIC: 50 µg/mL
//
compound: O=C1O[C@H](c2ccc(Cl)cc2Cl)[C@@](Cn2cncn2)(c2ccccc2)O1
MIC: > 100 µg/mL
//
compound: OC(c1ccccc1Cl)C(O)(Cn1cncn1)c1ccccc1 (configuration not stated)
MIC: > 100 µg/mL
//
compound: CC(C)[C@H]1OCO[C@@]1(Cn1cncn1)c1ccc(Cl)cc1
MIC: 100 µg/mL
//
compound: CC(O)(c1ccc(Cl)cc1)C(O)(Cn1cncn1)c1ccc(Cl)cc1Cl (stereo in doubt; 175)
MIC: 25 µg/mL
//
compound: O=C1O[C@H](c2ccc(Cl)cc2)[C@@](Cn2cncn2)(c2ccc(Cl)cc2)O1
MIC: > 100 µg/mL
//
compound: O=C1O[C@H](c2ccccc2)[C@@](Cn2cncn2)(c2ccccc2Cl)O1
MIC: > 100 µg/mL
//
compound: CC(=O)C(O)(Cn1cncn1)c1ccc(Cl)cc1Cl (configuration not stated)
MIC: 50 µg/mL
//
compound: CCCCC(O)(Cn1cncn1)C(C)(O)c1ccc(Cl)cc1 (stereo in doubt; 191)
MIC: > 100 µg/mL
//
compound: O=C(c1ccco1)C(O)(Cn1cncn1)c1ccco1 (configuration not stated)
MIC: > 100 µg/mL
//
compound: OC(c1ccccc1)C(O)(Cn1cncn1)c1ccccc1 (configuration not stated)
MIC: > 100 µg/mL
//
compound: CCCC(=O)C(O)(Cn1cncn1)c1ccc(Cl)cc1 (configuration not stated)
MIC: 12.5 µg/mL
//
compound: CCCC(O)C(O)(Cn1cncn1)c1ccc(Cl)cc1Cl (configuration not stated)
MIC: 50 µg/mL
//
compound: CC(C)C(O)(Cn1cncn1)C(=O)c1ccc(Cl)cc1 (configuration not stated)
MIC: 100 µg/mL
//
compound: O=C(c1ccccc1)C(O)(Cn1cncn1)c1ccc(Cl)cc1Cl (configuration not stated)
MIC: > 100 µg/mL
//
compound: O=C(c1ccc(Cl)cc1)C(O)(Cn1ccnc1)c1ccc(Cl)cc1Cl (configuration not stated)
MIC: > 100 µg/mL
//
compound: CC(C)[C@H]1OC(=O)O[C@]1(Cn1cncn1)c1ccc(Cl)cc1
MIC: > 100 µg/mL
//
compound: O=C1O[C@H](c2ccc(F)cc2)[C@@](Cn2cncn2)(c2ccc(Cl)cc2Cl)O1
MIC: > 100 µg/mL
//
compound: Clc1ccc([C@H]2OCO[C@]2(Cn2cncn2)c2ccc(Cl)cc2Cl)cc1
MIC: 0.2 µg/mL
//
compound: O=C1O[C@H](c2ccc(Cl)cc2)[C@@](Cn2cncn2)(c2ccc(Cl)cc2Cl)O1 (stereo in doubt; 115)
MIC: > 100 µg/mL
//
compound: CCCC(O)(c1ccc(F)cc1)C(O)(Cn1cncn1)c1ccc(Cl)cc1 (configuration not stated)
MIC: > 100 µg/mL
//
compound: CCC[C@H]1OC(=O)O[C@]1(Cn1cncn1)c1ccc(Cl)cc1
MIC: > 100 µg/mL
//
compound: CCCCCC(O)(Cn1cncn1)C(=O)c1ccc(Cl)cc1 (configuration not stated)
MIC: > 100 µg/mL
//
compound: CC(O)(c1ccc(Cl)cc1)C(O)(Cn1cncn1)c1ccc(F)cc1 (configuration not stated)
MIC: > 100 µg/mL
//
compound: O=C(c1ccc(Cl)cc1)C(O)(Cn1cncn1)c1ccccc1Cl (configuration not stated)
MIC: > 100 µg/mL
//
compound: Clc1ccc([C@@]2(Cn3cncn3)OC3(CCCCC3)O[C@@H]2c2ccc(Cl)cc2Cl)cc1
MIC: > 100 µg/mL
//
compound: CC(C)C(=O)C(O)(Cn1ccnc1)c1ccc(Cl)cc1Cl (configuration not stated)
MIC: > 100 µg/mL
//
compound: O=C(c1ccc(Cl)cc1Cl)C(O)(Cn1cncn1)c1ccc(Cl)cc1Cl (configuration not stated)
MIC: > 100 µg/mL
//
compound: CCCCC(=O)C(O)(Cn1ccnc1)c1ccc(Cl)cc1Cl (configuration not stated)
MIC: > 100 µg/mL
//
compound: O=C(c1ccccc1Cl)C(O)(Cn1ccnc1)c1ccccc1Cl (configuration not stated)
MIC: > 100 µg/mL
//
compound: O=C(c1ccc(Cl)cc1Cl)C(O)(Cn1cncn1)c1ccc(F)cc1 (configuration not stated)
MIC: > 100 µg/mL
//
compound: COc1ccc(C(=O)C(O)(Cn2cnnc2)c2ccc(OC)cc2)cc1 (configuration not stated)
MIC: > 100 µg/mL
//
compound: Clc1ccc([C@@]2(Cn3cncn3)OCO[C@@H]2c2ccc(Cl)cc2Cl)cc1
MIC: > 100 µg/mL
//
compound: OC(c1ccc(F)cc1)C(O)(Cn1cncn1)c1ccc(Cl)cc1 (stereo in doubt; 103)
MIC: > 100 µg/mL
//
compound: O=C1O[C@H](c2ccc(Cl)cc2Cl)[C@@](Cn2cncn2)(c2ccc(Cl)cc2)O1
MIC: > 100 µg/mL
//
compound: OC(Cn1cncn1)(c1ccc(F)cc1)C(O)(c1ccccc1)c1ccc(F)cc1 (stereo in doubt; 165)
MIC: > 100 µg/mL
